Catalogue of growth readings, one per entry.
- System: LOX IMVI melanoma
- Test Summary: NCI-60 one-dose screen, 48 h (100 = growth as untreated, 0 = no growth, -100 = all killed)
- Measurement Context: 10 µM unless noted
The panel holds about 83,000 compounds, 20% with a hit somewhere; the sample as a whole holds those more often.
Result Type: growth (%)

# Compound Structure, Result Type, Value Unit, Observed
data = [
    ("CCOC(=O)c1cn2ncnc(Oc3ccc(NC(=O)NC4CC4)c(Cl)c3)c2c1C", "growth", "%", 85.4),
    ("O=Nc1ccc(NC(=O)Nc2ccc([N+](=O)[O-])cc2)cc1", "growth", "%", 88.8),
    ("O=C1CCCCN1c1ccc(C2=NCCCN2)cc1", "growth", "%", 87.7),
    ("C(=C(\\C1=NCCN1)n1ccc2ccccc21)/c1ccccc1", "growth", "%", 93.3),
    ("COc1ccc(N=C2NN=C(c3c[nH]c4ccccc34)CS2)cc1OC", "growth", "%", 45.1),
    ("O=C(NNc1nc2cc(F)ccc2n2c(CN3CCOCC3)ccc12)c1ccccc1", "growth", "%", -39.6),
]

----------
- Test system: HCT-116 colon
- Test Summary: NCI-60 one-dose screen, 48 h
- Measurement Context: 10 µM unless noted
Compounds without any hit were thinned out: in the full panel of roughly 83,000, 20% have a hit. Active and inactive are the calls of the source. The calls were made as follows: active = growth percent below 10; inactive = the rest.
Outcomes: 1 (active), -1 (inactive)

# Molecule, Label Value
rows = [
    ("Cc1nc([P+](c2ccccc2)(c2ccccc2)c2ccccc2)c(N2CCCCC2)o1", -1),
    ("Nc1[nH]nc2nc(-c3ccccc3)n3c4ccccc4nc3c12", -1),
    ("COc1ccc(-c2cc(C(=O)N3N=C(c4ccc(N)cc4)CC3c3ccc(Cl)cc3)c3cc(OC)ccc3n2)cc1 (stereo not given)", 1),
    ("c1cc(OCCN2CCCCC2)ccc1CNc1ccc2nc(CCC3CCCCC3)[nH]c2c1", -1),
    ("c1ccc(-c2ccc3c(c2)C2(CCNCC2)CN3)cc1", -1),
]

----------
Catalogue of growth readings, one per entry.
- System: T-47D breast
- Test Summary: NCI-60 one-dose screen, 48 h (100 = growth as untreated, 0 = no growth, -100 = all killed)
- Measurement Context: 10 µM unless noted
About 83,000 compounds went through this panel and 20% of them were active in at least one assay; those are over-represented in the sample as a whole.

# Molecule, growth (%)
measured = [
    ("Cc1oc(-c2ccc(Cl)cc2)nc1C1=NN(C(=O)c2ccncc2)C(c2ccccc2)C1 (centres undefined)", 97),
    ("Cn1cc(-c2nonc2-c2c[nH]c3ccccc23)c2cc(Br)ccc21", 14.5),
    ("CN(C)c1ccc(C(=S)c2ccc(N(C)C)cc2)cc1", 74.2),
    ("N#CSc1c[nH]c2ccc(/C=C/C(=O)/C=C(O)/C=C/c3ccc4[nH]cc(SC#N)c4c3)cc12", 19.4),
    ("O=C1C=CC2(O)OC/C(=C\\c3ccccc3)C(O)=C2C1=O (centres undefined)", -19.8),
    ("Clc1ccc(-c2nc(C(Cl)Cl)nc3cc(-c4ccccc4)nn23)cc1", 55.3),
    ("c1cc(OCCN2CCCC2)ccc1CNc1ccc2nc(CCC3CCCCC3)[nH]c2c1", -11.5),
    ("N#C/C(=C\\c1ccc(-c2cccc(Cl)c2)o1)C(=O)Nc1ncc(Cc2ccc(Cl)cc2)s1", 20.7),
    ("Cc1sc2nc(NCCN)[nH]c(=O)c2c1C", 95),
    ("N[C@@H]1CCC[C@H]1NCCCCN1C(=O)c2cccc3cc([N+](=O)[O-])cc(c23)C1=O", 38.1),
    ("CC(C)NS(=O)(=O)/N=C1\\NC(=O)NC1=C(Cl)Cl", 79.7),
    ("O=C(NCCN1CCOCC1)OCc1ccc2c(Cl)cc(Cl)c(O)c2n1", 74.8),
    ("CCOC(=O)NC(=S)n1oc(=O)c2ccccc21", 99.2),
    ("CNCCCNc1nc2ccccc2c2c(=O)c3cc(Cl)ccc3sc12", 48.5),
    ("CNC(=O)c1cc(Oc2ccc3c(c2)sc2nc(-c4ccc(NC(=O)[C@@H](NC(=O)OC)C(C)C)cc4)cn23)ccn1", 8.68),
    ("O=c1oc2ccccc2cc1-c1nn(-c2ccccc2)cc1-c1nn[nH]n1", 100),
    ("CCn1cc(C(=O)O)c(=O)c2cc(F)c(N3CCN(CC(=O)Nc4ccccc4)C(C)C3)c(F)c21 (centres undefined)", 95.4),
    ("CC1=C(Cl)C(=O)c2cc(C)ccc2C1=O", 96.9),
    ("CC1(C)CC[C@]23CC[C@]4(C)[C@H](CC[C@@H]5[C@@]6(C)CCNCC(C)(C)[C@@H]6CC[C@]54C)[C@H]2[C@H]1OC3", 77.8),
    ("Nc1ncccc1O", 96.2),
    ("O=C(Nc1ncc(Cc2ccccc2)s1)c1sc2ccccc2c1Cl", 19.3),
    ("COc1ccc(Cl)cc1Nc1nc(C(F)(F)F)ccc1C(=O)N/N=C/c1ccc([N+](=O)[O-])cc1", 7.15),
    ("C=CC(CC(c1ccccc1)(c1ccccc1)c1ccccc1)N(CC)CC (centres undefined)", 59.3),
    ("COc1ccc(-c2cc(-c3cn(-c4cccc(Cl)c4)nc3-c3ccc(OC)cc3)on2)cc1", 95),
    ("Fc1ccc(/C=C/[C@@H]2C[C@@H](F)CCO2)cc1", 101),
    ("CN(C)c1ccc(/C=C2\\C=C(c3nc4ccccc4s3)OC2=O)cc1", 78),
    ("CCCCO[C@@H]1C=C2[C@H]3CC(C)(C)C(=O)C[C@]3(C(=O)O[C@@H]3O[C@H](CO[C@@H]4O[C@H](CO)[C@@H](OC5OC(C)C(O)C(O)C5O)[C@H](O)[C@H]4O)[C@@H](O)[C@H](O)[C@H]3O)CC[C@@]2(C)[C@]2(C)CC[C@H]3C(C)(C)C(=O)CC[C@]3(C)[C@@H]12 (some centres undefined)", 67.4),
    ("O=C1O[C@@H](c2ccccc2Cl)[C@@H]2c3cc4c(cc3CCN12)OCO4", 69.9),
    ("O=C(Nc1nc(Cl)nc(Nc2ccc(N3CCOCC3=O)cc2)n1)c1ccc(Cl)s1", 71.7),
    ("CN(C)CCCC1(c2ccc(F)cc2)OCc2cc(-c3csc4ccccc34)ccc21 (centres undefined)", 26.4),
    ("COc1ccc(-c2nc3c(c(-c4ccc(Cl)cc4)nn3-c3ccccc3)c(-c3ccccc3)c2C#N)cc1", 94.3),
    ("O=C(/C=C/c1ccccc1)c1ccc(-n2cc(CN3CCN(c4cc5c(cc4F)c(=O)c(C(=O)O)cn5C4CC4)CC3)nn2)cc1", 92.9),
    ("C=CCn1cc(-c2nc3ccccc3s2)c2cc(-c3ccc4c5c(cccc35)C(=O)N(CCO)C4=O)ccc21", 78.1),
    ("Cc1cn(C)cn1", 104),
    ("O=C1C=C(SCCO)C(=O)c2ccccc21", -1.68),
    ("C#Cc1cccc(Nc2ncnc3cc(NC(=O)CCl)ccc23)c1", -52.7),
    ("Cc1c2ncccc2nc2[nH]c3ccc(OCCN(C)C)cc3c12", 32.3),
    ("Clc1cccc(C2Cc3cnccc3-c3[nH]c4ccncc4c32)c1 (centres undefined)", 34.4),
    ("O=C(O)CCCCCCCCCCN1C(=O)/C(=C2/C(=O)N(CC(=O)O)c3ccc(Br)cc32)SC1=S", 77.9),
]

----------
Catalogue of growth readings, one per entry.
- System: SK-MEL-2 melanoma
- Test Summary: NCI-60 one-dose screen, 48 h (100 = growth as untreated, 0 = no growth, -100 = all killed)
- Measurement Context: 10 µM unless noted
Compounds without any hit were thinned out: in the full panel of roughly 83,000, 20% have a hit.

# Compound, growth / %
data = [
    ("CC1(C)CC[C@]23CC[C@]4(C)[C@H](CC[C@@H]5[C@@]6(C)CCNCC(C)(C)[C@@H]6CC[C@]54C)[C@H]2[C@H]1OC3", 99.1),
    ("C#Cc1cccc(Nc2ncnc3cc(NC(=O)CCl)ccc23)c1", -61.5),
    ("COc1cc2c(c(OC)c1OC)CCC(c1cccc(C(=O)Nc3ccc(Br)cc3)c1)O2 (centres undefined)", 46.4),
    ("CC[C@@H](C(=O)[C@@H](C)[C@@H](O)[C@H](C)[C@@H]1O[C@@H]([C@@H](CC)C(=O)ONC(=O)c2ccccc2O)CC[C@@H]1C)C1O[C@]2(C=CC(=O)[C@]3(CC[C@@](C)([C@H]4CC[C@](O)(CC)[C@H](C)O4)O3)O2)[C@H](C)C[C@@H]1C (some centres undefined)", 76.9),
]
